Tested on: Staphylococcus epidermidis
Assay Details: In vitro antimicrobial activity against Staphylococcus epidermidis EPI1
Format: functional
Criterion: MIC strictly under 1 µg/mL. Met: True. Not met: False.

Incoming: Problem: For the molecule CC[C@H]1OC(=O)C[C@@H](O)[C@H](C)[C@@H](O[C@@H]2O[C@H](C)[C@@H](O)[C@H](N(C)C)[C@H]2O)[C@@H](CCN2C(=O)c3ccccc3C2=O)C[C@@H](C)C(=O)/C=C/C(C)=C/[C@@H]1CO , is MIC under 1 µg/mL?
Outgoing: False

Incoming: # check: MIC < 1 µg/mL for CC[C@H]1OC(=O)C[C@@H](O)[C@H](C)[C@@H](O[C@@H]2O[C@H](C)[C@@H](O)[C@H](N(C)C)[C@H]2O)[C@@H](CCCl)C[C@@H](C)C(=O)/C=C/C(C)=C/[C@@H]1CO[C@@H]1O[C@H](C)[C@@H](O)[C@@H](OC)[C@H]1OC
Outgoing: True

Incoming: Bench note: check whether CC[C@H]1OC(=O)C[C@@H](O)[C@H](C)[C@@H](O[C@@H]2O[C@H](C)[C@@H](O)[C@H](N(C)C)[C@H]2O)[C@@H](CC=O)C[C@@H](C)C(=O)/C=C/C(C)=C/[C@@H]1CO[C@@H]1O[C@H](C)[C@@H](O)[C@@H](O)[C@H]1OC shows MIC below 1 µg/mL
Outgoing: False

Incoming: Hi there! Is MIC for CC[C@H]1OC(=O)C[C@@H](O)[C@H](C)[C@@H](O[C@@H]2O[C@H](C)[C@@H](O)[C@H](N(C)C)[C@H]2O)[C@@H](CCSc2ccccc2)C[C@@H](C)C(=O)/C=C/C(C)=C/[C@@H]1CO[C@@H]1O[C@H](C)[C@@H](O)[C@@H](OC)[C@H]1OC below 1 µg/mL, do you know?
Outgoing: True

Incoming: Consider CC[C@H]1OC(=O)C[C@@H](O)[C@H](C)[C@@H](O[C@@H]2O[C@H](C)[C@@H](O[C@H]3C[C@@](C)(O)[C@@H](O)[C@H](C)O3)[C@H](N(C)C)[C@H]2O)[C@@H](CCNCCc2ccccc2)C[C@@H](C)C(=O)/C=C/C(C)=C/[C@@H]1CO[C@@H]1O[C@H](C)[C@@H](O)[C@@H](OC)[C@H]1OC . Does its MIC lie strictly below 1 µg/mL?
Outgoing: False

Incoming: Dear reviewer, please state whether CC[C@H]1OC(=O)C[C@@H](O)[C@H](C)[C@@H](O[C@@H]2O[C@H](C)[C@@H](O)[C@H](N(C)C)[C@H]2O)[C@@H](C)C[C@@H](C)C(=O)/C=C/C(C)=C/[C@@H]1CO[C@@H]1O[C@H](C)[C@@H](O)[C@@H](OC)[C@H]1OC has MIC strictly beneath 1 µg/mL.
Outgoing: True

Incoming: Identify whether the molecule CC[C@H]1OC(=O)C[C@@H](O)[C@H](C)[C@@H](O[C@@H]2O[C@H](C)[C@@H](O[C@H]3C[C@@](C)(O)[C@@H](O)[C@H](C)O3)[C@H](N(C)C)[C@H]2O)[C@@H](CCO)C[C@@H](C)C(=O)/C=C/C(C)=C/[C@@H]1CO[C@@H]1O[C@H](C)[C@@H](O)[C@@H](O)[C@H]1OC records MIC below 1 µg/mL.
Outgoing: False

Incoming: Lab log: compare recorded MIC with 1 µg/mL; is it strictly lower for CC[C@H]1OC(=O)C[C@@H](O)[C@H](C)[C@@H](O[C@@H]2O[C@H](C)[C@@H](O[C@H]3C[C@@](C)(O)[C@@H](O)[C@H](C)O3)[C@H](N(C)C)[C@H]2O)[C@@H](CCOc2ccc(OC(C)=O)cc2)C[C@@H](C)C(=O)/C=C/C(C)=C/[C@@H]1CO[C@@H]1O[C@H](C)[C@@H](O)[C@@H](OC)[C@H]1OC ?
Outgoing: True

Incoming: Dear colleague, could you confirm whether MIC of CC[C@H]1OC(=O)C[C@@H](O)[C@H](C)[C@@H](O[C@@H]2O[C@H](C)[C@@H](O)[C@H](N(C)C)[C@H]2O)[C@@H](CCOc2cc(Cl)cc(Cl)c2)C[C@@H](C)C(=O)/C=C/C(C)=C/[C@@H]1CO[C@@H]1O[C@H](C)[C@@H](O)[C@@H](OC)[C@H]1OC falls below 1 µg/mL? Thanks.
Outgoing: True

Incoming: Given the entry CC[C@H]1OC(=O)C[C@@H](O)[C@H](C)[C@@H](O[C@@H]2O[C@H](C)[C@@H](O[C@H]3C[C@@](C)(O)[C@@H](O)[C@H](C)O3)[C@H](N(C)C)[C@H]2O)[C@@H](CCI)C[C@@H](C)C(=O)/C=C/C(C)=C/[C@@H]1CO[C@@H]1O[C@H](C)[C@@H](O)[C@@H](O)[C@H]1OC , would its reported MIC be below 1 µg/mL?
Outgoing: False

Incoming: Check if MIC falls below 1 µg/mL for CC[C@H]1OC(=O)C[C@@H](O)[C@H](C)[C@@H](O[C@@H]2O[C@H](C)[C@@H](O[C@H]3C[C@@](C)(O)[C@@H](O)[C@H](C)O3)[C@H](N(C)C)[C@H]2O)[C@@H](CCOc2ccc(-c3ccccc3)cc2)C[C@@H](C)C(=O)/C=C/C(C)=C/[C@@H]1CO[C@@H]1O[C@H](C)[C@@H](O)[C@@H](OC)[C@H]1OC .
Outgoing: False

Incoming: Please determine if CC[C@H]1OC(=O)C[C@@H](O)[C@H](C)[C@@H](O[C@@H]2O[C@H](C)[C@@H](O)[C@H](N(C)C)[C@H]2O)[C@@H](CCOCCc2ccccc2)C[C@@H](C)C(=O)/C=C/C(C)=C/[C@@H]1CO[C@@H]1O[C@H](C)[C@@H](O)[C@@H](OC)[C@H]1OC is below 1 µg/mL in terms of MIC.
Outgoing: True
